Where these numbers come from: the supplement of paper PMC6609913

system: V-C8 + BRCA2 (BRCA2-proficient hamster cells); assay: normalised cell viability (fraction of plate median); higher = more viable cells (less toxic); settings: treatment time: 3 days; 5 µM
Counter-ions that a name gives are not always drawn. In all, about 1,300 compounds were measured (“normalised cell viability”: median about 1, lowest 2% from about 0.15 on). This is one part of a sample in which the lowest values are shown more often than they occur.
# normalised cell viability binned as Low: < 0.9; Mid: ≥ 0.9 and < 1; High: ≥ 1

Exercise: read the entry CC(C)[N+](C)(CCC(C(N)=O)(c1ccccc1)c1ccccc1)C(C)C [Isopropamide iodide] and state which class it falls under.
High

Which category fits this record: `O=C(CCCN1CCC2(CC1)C(=O)NCN2c1ccccc1)c1ccc(F)cc1`
High

Classify this compound: CN1[C@@H]2CC[C@H]1C[C@@H](OC1c3ccccc3CCc3ccccc31)C2 [Deptropine citrate]
Mid

Form field 'band' for CC(=O)NC1CCSC1=O (racemic)
High

Textbook exercise: identify the category of the compound given here, CCCCCC[C@H]1C(=O)O[C@H](C)[C@H](NC(=O)c2cccc(NC=O)c2O)C(=O)O[C@@H](C)[C@@H]1OC(=O)CC(C)C [Antimycin A] , according to its measured value.
Low

Looking at CCC(C)C1O[C@]2(C=C[C@@H]1C)C[C@@H]1CC(C/C=C(\C)[C@@H](OC3C[C@H](OC)[C@@H](OC4C[C@H](OC)[C@@H](O)[C@H](C)O4)[C@H](C)O3)[C@@H](C)/C=C/C=C3\COC4[C@H](O)C(C)=CC(C(=O)O1)[C@]34O)O2 (stereo partly specified) , which class would you pick?
Low

Hey, which category is `C[C@]12CC[C@H](O)C[C@H]1CC[C@@H]1[C@@H]2C[C@@H](O)[C@]2(C)[C@@H](C3=CC(=O)OC3)CC[C@]12O` in, do you know?
Mid

Band assignment needed for CC[C@@]1(O)C(=O)OCc2c1cc1n(c2=O)Cc2cc3ccccc3nc2-1 [Camptothecine (S,+)] please.
Low

Kindly state the category for this compound: CN1CCC2(C)c3cc(O)ccc3N(C)C12 (single isomer, unassigned; (-)) [(-)-Eseroline fumarate salt]
Low

====

tested on: V-C8 + BRCA2 (BRCA2-proficient hamster cells); assay: normalised cell viability (fraction of plate median); higher = more viable cells (less toxic); settings: treatment time: 6 days; 5 µM
Structures can show the parent of a compound that is named as a salt. The full ranking holds about 1,300 compounds; the median of “normalised cell viability” is about 1, and the lowest 2% start at about 0.15. Shown is part of a subset that was picked to be rich in the lowest values.
endpointName: normalised cell viability
Form rule: numeric answer, no unit written next to it.

Dear colleague, I am looking for the recorded normalised cell viability of the following compound: CC(=O)NC1CCSC1=O (racemic) [N-Acetyl-DL-homocysteine Thiolactone]
1.06

Please look up its normalised cell viability: `Fc1ccc(C(OCCN2CCN(CCCc3ccccc3)CC2)c2ccc(F)cc2)cc1`
0.191

Which normalised cell viability value belongs to CO[C@]12C[C@@H](COC(=O)c3cncc(Br)c3)CN(C)[C@@H]1Cc1cn(C)c3cccc2c13 [Nicergoline] ?
0.926

Need normalised cell viability of CCC(=O)O[C@H]1CC[C@H]2[C@@H]3CCC4=CC(=O)CC[C@]4(C)[C@H]3CC[C@]12C [Testosterone propionate] , thanks.
1

What does the record list as normalised cell viability for C[CH2][Hg][S]c1ccccc1C(=O)[O-].[Na+] [Thimerosal] ?
0.118

Please report the recorded normalised cell viability for CNCC(O)c1ccc(O)cc1 (racemic) [(+,-)-Synephrine] .
1.01

Can you share its normalised cell viability? I mean this compound: COc1cc([C@@H]2c3cc4c(cc3[C@H](O)[C@H]3COC(=O)[C@H]23)OCO4)cc(OC)c1OC [Podophyllotoxin]
0.136

Return reported normalised cell viability; argument: CN1[C@@H]2CC[C@H]1C[C@@H](OC1c3ccccc3CCc3ccccc31)C2 [Deptropine citrate]
0.869

What does the data say about its normalised cell viability? Entry: NCC(CC(=O)O)c1ccc(Cl)cc1 (racemic) [Baclofen (R,S)]
0.956

normalised cell viability lookup needed for CC(C)(N)Cc1ccccc1 [Phentermine hydrochloride] , thanks.
0.995

Given the entry C=C1[C@@H]2CC[C@H]3[C@]4(C)C[C@H](O[C@@H]5O[C@H](CO)[C@@H](OS(=O)(=O)O)[C@H](OS(=O)(=O)O)[C@H]5OC(=O)CC(C)C)C[C@@H](C(=O)O)[C@H]4CC[C@]3(C2)[C@@H]1O [Atractyloside potassium salt] , report its measured normalised cell viability.
1.15

Reported normalised cell viability, compound CC[C@@]1(O)C(=O)OCc2c1cc1n(c2=O)Cc2cc3ccccc3nc2-1 [Camptothecine (S,+)] : ____
0.124

Consider the compound CCC(=O)O[C@@](Cc1ccccc1)(c1ccccc1)[C@@H](C)CN(C)C [Levopropoxyphene napsylate] and give its measured normalised cell viability.
1.06

Value lookup for normalised cell viability; key = CN1CCC2(C)c3cc(O)ccc3N(C)C12 (single isomer, unassigned; (-)) [(-)-Eseroline fumarate salt]
0.769

GET /values?readout=normalised cell viability&item= OC(c1ccccc1)(c1ccccc1)C1CCNCC1 [Azacyclonol]
1.03

# input compound: COc1ccc(CCN2CCC(Nc3nc4ccccc4n3Cc3ccc(F)cc3)CC2)cc1 [Astemizole] ; wanted: its normalised cell viability
0.102

====

test system: V-C8 + BRCA2 (BRCA2-proficient hamster cells); assay: normalised cell viability (fraction of plate median); higher = more viable cells (less toxic); conditions: treatment time: 6 days; 5 µM
Counter-ions that a name gives are not always drawn. The full ranking holds about 1,300 compounds; the median of “normalised cell viability” is about 1, and the lowest 2% start at about 0.15. The entries come from a sample that favours the lowest values as a whole.
endpointName: normalised cell viability
# answer = number (no unit)

Given the compound NCCC(O)C(=O)NC1CC(N)C(OC2OC(CN)C(O)[C@H](O)[C@@H]2N)[C@H](OC2O[C@H](CO)[C@@H](O)[C@@H]2O)[C@@H]1O (stereo partly drawn) [Butirosin disulfate salt] , what is its reported normalised cell viability?
0.868

Look at this compound and give its reported normalised cell viability. CCCCCC[C@H]1C(=O)O[C@H](C)[C@H](NC(=O)c2cccc(NC=O)c2O)C(=O)O[C@@H](C)[C@@H]1OC(=O)CC(C)C [Antimycin A]
0.124

Give the measured normalised cell viability of C[C@@H]1C[C@@H]([C@H](O)CC2CC(=O)NC(=O)C2)C(=O)[C@@H](C)C1 [Cycloheximide] .
0.138

====

test system: V-C8 + BRCA2 (BRCA2-proficient hamster cells); experiment: normalised cell viability (fraction of plate median); higher = more viable cells (less toxic); settings: treatment time: 3 days; 5 µM
Structures can show the parent of a compound that is named as a salt. In all, about 1,300 compounds were measured (“normalised cell viability”: median about 1, lowest 2% from about 0.15 on). Only a selection was taken, and the lowest values are over-represented in it overall.
Exercise: for every item that follows, state its recorded normalised cell viability.
Answer with the value's number alone.

Consider the compound C[C@]12C[C@H]3S[C@H]3C[C@@H]1CC[C@@H]1[C@@H]2CC[C@]2(C)[C@@H](O)CC[C@@H]12 [Epitiostanol] and give its measured normalised cell viability.
1.02

Looking for the measured normalised cell viability of NCCC(O)C(=O)NC1CC(N)C(OC2OC(CN)C(O)[C@H](O)[C@@H]2N)[C@H](OC2O[C@H](CO)[C@@H](O)[C@@H]2O)[C@@H]1O (some centres not stated) [Butirosin disulfate salt] , can you help?
0.979

Record request: normalised cell viability value, item CCC(=O)O[C@H]1CC[C@H]2[C@@H]3CCC4=CC(=O)CC[C@]4(C)[C@H]3CC[C@]12C [Testosterone propionate]
0.906

Record request: normalised cell viability value, item CC(C)(N)Cc1ccccc1 [Phentermine hydrochloride]
1

Request the reported normalised cell viability associated with `OC(c1ccccc1)(c1ccccc1)C1CCNCC1`
0.985

Reported normalised cell viability for NCC(CC(=O)O)c1ccc(Cl)cc1 (racemic) [Baclofen (R,S)] : what is it?
0.897

Record request: normalised cell viability value, item CNCC(O)c1ccc(O)cc1 (racemic) [(+,-)-Synephrine]
1.01
